Catalogue of compounds with associated EC50
# TARGET: human GLP-1R (Homo sapiens, UniProt P43220)
# Construct: host or cells: HEK293
# Sequence (P43220 24-463): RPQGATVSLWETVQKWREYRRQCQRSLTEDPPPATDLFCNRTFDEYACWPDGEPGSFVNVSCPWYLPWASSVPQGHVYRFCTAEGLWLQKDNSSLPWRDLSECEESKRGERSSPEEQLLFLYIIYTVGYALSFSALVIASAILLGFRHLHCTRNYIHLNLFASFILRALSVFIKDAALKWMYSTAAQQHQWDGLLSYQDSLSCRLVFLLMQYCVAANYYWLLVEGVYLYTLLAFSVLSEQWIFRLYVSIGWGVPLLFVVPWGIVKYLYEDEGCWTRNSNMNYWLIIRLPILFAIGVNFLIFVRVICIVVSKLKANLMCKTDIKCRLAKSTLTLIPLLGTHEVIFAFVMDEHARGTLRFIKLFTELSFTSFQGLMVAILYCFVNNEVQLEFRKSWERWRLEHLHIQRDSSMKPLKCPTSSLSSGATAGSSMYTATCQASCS
# TEST NAME: GLP-1R cAMP assay (Example B1a, HTRF, 30 min at room temperature)
# Type: cell-based
# SETUP CONDITIONS: cAMP accumulation in HEK293 expressing human GLP-1R, no BETP, 30 min room temperature (Method B1a, compounds ID 1-609), Table 1; read-out: EC50
The answer is to be given in nM; state only the numeric part.

What does the data say about its EC50? Entry: `Cc1cc(-n2nc3c(c2-n2ccn(-c4ccc5c(cnn5C)c4F)c2=O)[C@@H]2CC[C@H](C3)N2C(=O)c2cc3cc([C@@H]4CCOC5(CC5)C4)ccc3n2[C@@]2(c3noc(=O)[nH]3)C[C@@H]2C)cc(C)c1F`
4130

Moving on to the next compound: `CCP(=O)(CC)c1ccc(-n2ccn(-c3c4c(nn3-c3cc(C)c(F)c(C)c3)CCCN(C(=O)c3cc5cc(C6CCOCC6)ccc5n3[C@@]3(c5noc(=O)[nH]5)C[C@@H]3C)C4)c2=O)cc1NC`
757

Moving on to the next compound: `Cc1cc(-n2nc3c(c2-n2ccn(-c4ccc5c(cnn5C)c4F)c2=O)[C@@H]2CC[C@H](C3)N2C(=O)c2cc3cc([C@H]4CCOC(C)(C)C4)ccc3n2[C@@]2(C(=O)N(C)C)C[C@@H]2C)cc(C)c1F`
618

Moving on to the next compound: Cc1cc(-n2nc3c(c2-n2ccn(-c4ccc5c(cnn5C)c4F)c2=O)C2CCC([C@@H]3F)N2C(=O)c2cc3cc([C@H]4CCOC(C)(C)C4)ccc3n2[C@@]2(c3noc(=O)[nH]3)C[C@@H]2C)cc(C)c1F (stereo partly drawn)
630

Proceed to the following item.
What does the data say about its EC50? Entry: `Cc1cc(-n2nc3c(c2-n2ccn(-c4ccc5c(cnn5C)c4F)c2=O)[C@@H]2CC[C@H](C3)N2C(=O)c2cc3cc([C@H]4CCOC(C)(C)C4)ccc3n2[C@@]2(c3nnn[nH]3)C[C@@H]2C)cc(C)c1F`
137
